Biological target: human HAQ isoform of STING (Homo sapiens, UniProt Q86WV6, G230A/H232R/R293Q/R71H)
Sequence (Q86WV6 whole entry R71H/G230A/H232R/R293Q, canonical isoform): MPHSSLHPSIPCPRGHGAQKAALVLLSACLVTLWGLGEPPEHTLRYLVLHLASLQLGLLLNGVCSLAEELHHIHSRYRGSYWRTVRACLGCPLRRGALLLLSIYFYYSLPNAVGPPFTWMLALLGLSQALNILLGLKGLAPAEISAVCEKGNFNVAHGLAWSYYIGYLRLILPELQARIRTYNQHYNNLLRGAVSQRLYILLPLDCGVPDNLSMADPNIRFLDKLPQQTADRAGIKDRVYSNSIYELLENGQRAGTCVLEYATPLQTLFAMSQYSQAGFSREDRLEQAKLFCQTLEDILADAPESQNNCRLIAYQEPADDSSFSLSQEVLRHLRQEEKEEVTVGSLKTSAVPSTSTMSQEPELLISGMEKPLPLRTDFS
Experiment: THP-1 STING Lucia ISG reporter cell line assay
Details: 24 h incubation, QUANTI-Luc luminescence; normalised to 40 μM ML RR-S2 CDA; read-out: EC50 THP-1 STING Lucia ISG cells
Let's look at some compounds and their measured EC50.
A number alone suffices; assume nM.

Worked cases, answers included:
COc1c(C(N)=O)cc(F)c2[nH]c(-c3c(C(=O)O)sc4c(F)ccc(Cl)c34)nc12: 3590
CCOC(=O)c1sc2c(F)ccc(Cl)c2c1-c1nc2c(OC)c(C(N)=O)ccc2[nH]1: 122
CCOC(=O)c1sc2c(F)ccc(Br)c2c1-c1nc2ccc(C(N)=O)c(OC)c2[nH]1: 43

### Prompt Report EC50 for CCOC(=O)c1sc2c(F)ccc(Br)c2c1-c1nc2cc(C(N)=O)ccc2[nH]1
### Response 441

====

Reported EC50 by item:
Target: human HAQ isoform of STING (Homo sapiens, UniProt Q86WV6, G230A/H232R/R293Q/R71H)
Assay: THP-1 STING Lucia ISG reporter cell line assay
Settings: 24 h incubation, QUANTI-Luc luminescence; normalised to 40 μM ML RR-S2 CDA; read-out: EC50 THP-1 STING Lucia ISG cells
Write the answer as a number in nM, unit excluded.

CCOC(=O)c1sc2cccc(OC)c2c1-c1nc2c(OC)c(C(N)=O)ccc2[nH]1 [Example 19]: 28

### Prompt Report EC50 under test system human HAQ isoform of STING (Homo sapiens, UniProt Q86WV6, G230A/H232R/R293Q/R71H) for CCOC(=O)c1sc2c(F)ccc(Cl)c2c1-c1nc2c(OC)c(C(N)=O)cc(Cl)c2[nH]1 [Example 18] .
### Response 1830

### Prompt Give EC50 for this entry on human HAQ isoform of STING (Homo sapiens, UniProt Q86WV6, G230A/H232R/R293Q/R71H): CCOC(=O)c1sc2c(F)ccc(Br)c2c1-c1nc2ccc(C(N)=O)c(OCC)c2[nH]1 [Example 14]
### Response 576

### Prompt Write down measured EC50 (human HAQ isoform of STING (Homo sapiens, UniProt Q86WV6, G230A/H232R/R293Q/R71H)) for this compound. CCOC(=O)c1sc2c(F)ccc(Cl)c2c1-c1nc2c(OC)c(C(N)=O)cc(F)c2[nH]1 [Example 23]
### Response 115

====

Each entry below carries its recorded pKd.
Target: huSTING (HAQ) (Homo sapiens, UniProt Q86WV6, G230A/H232R/R293Q)
Sequence (Q86WV6 with tags, fused parts or gaps G230A/H232R/R293Q): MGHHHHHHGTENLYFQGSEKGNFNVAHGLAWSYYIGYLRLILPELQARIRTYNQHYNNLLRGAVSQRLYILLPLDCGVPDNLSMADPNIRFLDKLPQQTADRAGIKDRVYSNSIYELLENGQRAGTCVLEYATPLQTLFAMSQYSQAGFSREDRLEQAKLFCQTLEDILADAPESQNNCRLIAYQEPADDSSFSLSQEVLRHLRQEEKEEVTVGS
Assay: Surface Plasmon Resonance (SPR) STING (HAQ)
Conditions: biotinylated STING on streptavidin chip, 8° C.; 50% occupancy as surrogate KD
A value of pKd is the negative decimal logarithm of a concentration given in moles per litre.

### Prompt Please list pKd recorded for the compound NC(=O)c1ccc2[nH]c(-c3c(C(=O)O)sc4cccc(Cl)c34)nc2c1Cl
### Response 4.48

====

Quick reference for EC50 among some compounds
Target: human HAQ isoform of STING (Homo sapiens, UniProt Q86WV6, G230A/H232R/R293Q/R71H)
Assay: THP-1 STING Lucia ISG reporter cell line assay
Conditions: 24 h incubation, QUANTI-Luc luminescence; normalised to 40 μM ML RR-S2 CDA; read-out: EC50 THP-1 STING Lucia ISG cells
// note: answer is a bare numeric in nM

Illustrative cases are given below, each with its answer.
CCOC(=O)c1sc2cccc(Cl)c2c1-c1nc2cc(C(N)=O)ccc2[nH]1: 574
CCOC(=O)c1sc2cccc(Cl)c2c1-c1nc2cc(C(N)=O)ccc2n1C (single isomer, unassigned): 8270
CCOC(=O)c1sc2cccc(Cl)c2c1-c1nc2ccc(C(N)=O)cc2n1C (single isomer, unassigned): 2510

### Prompt Fill in reported EC50 for this entry: NC(=O)c1ccc2[nH]c(-c3c(C(=O)O)sc4cccc(Cl)c34)nc2c1Cl
### Response 6100
